These measurements were taken from PubChem BioAssay (NCI).

- System: RXF 393 renal
- Experimental Protocol: NCI-60 one-dose screen, 48 h (100 = growth as untreated, 0 = no growth, -100 = all killed)
- Condition Set: 10 µM unless noted
About 83,000 compounds went through this panel and 20% of them were active in at least one assay; those are over-represented in the sample as a whole.
growth overview

Molecule: COc1ccc2c(c1)Oc1nc(N)c(C#N)c(N)c1C2Sc1ccc(O)cc1 (centres undefined)
Unit Name: %
growth: 90.8
--
Molecule: CCCn1c2cc(OCc3cn(-c4ccc(Cl)cc4)nn3)ccc2c2ccnc(C)c21
Unit Name: %
growth: 73
--
Molecule: C#Cc1ccccc1NC(=O)c1sc2nc3c(cc2c1N)CCCCC3
Unit Name: %
growth: 113
--
Molecule: Nc1c(C(=O)Nc2cccc3ccccc23)sc2nc3c(cc12)COCC3
Unit Name: %
growth: 41.4
--
Molecule: COc1cc(C2=NNC(c3ccc(N(C)C)cc3)C2)cc(OC)c1OC (centres undefined)
Unit Name: %
growth: -31.7
--
Molecule: CN1CCN(CC#CCOC(=O)CNC(=O)[C@]23CCC(C)(C)C[C@H]2C2=CC[C@@H]4[C@@]5(C)CC[C@H](O)C(C)(C)[C@@H]5CC[C@@]4(C)[C@]2(C)CC3)CC1
Unit Name: %
growth: 78.1
--
Molecule: O=C1NC(SCc2ccc(F)cc2)=N/C1=C/c1cccc(OCc2ccc(Cl)cc2)c1
Unit Name: %
growth: 55
--
Molecule: C/C(=N/Nc1nc2ccccc2n1C)c1ccccn1
Unit Name: %
growth: -12.5
--
Molecule: CCOC(=O)c1c(-c2ccc(O)cc2)c(C#N)c2c(C#N)c(N)nn2c1N
Unit Name: %
growth: 76.2

----------
- Test system: RPMI-8226 leukemia
- Experimental Protocol: NCI-60 one-dose screen, 48 h (100 = growth as untreated, 0 = no growth, -100 = all killed)
- Condition Set: 10 µM unless noted
About 83,000 compounds went through this panel and 20% of them were active in at least one assay; those are over-represented in the sample as a whole.
Label scheme for growth: lo (below 20%), med (20% to below 90%), hi (90% or more)

Molecule: NC(=O)CN1C(=O)c2ccccc2C1=O
Class Name: hi

Molecule: C=C(C)[C@@H]1CC[C@]2(C(=O)N=C=S)CC[C@]3(C)[C@H](CC[C@@H]4[C@@]5(C)CCC(=O)C(C)(C)[C@@H]5CC[C@]43C)[C@@H]12
Class Name: lo

Molecule: CC(=O)O[C@@H]1C[C@]2(C)[C@H]3[C@H](O)C[C@@H]4C5=CC(C)(C)CC[C@]5(C)CC[C@@]4(C)[C@]3(C)CC[C@H]2C(C)(C)[C@H]1O
Class Name: hi

Molecule: Cn1c2c(c3ccc(-c4ccn[nH]4)cc3c1=O)C(=O)c1ccccc1-2
Class Name: lo

Molecule: COC1=CC2C=C(C3N(c4ccccc4)NC(=O)[C@@H]4CCCN34)C(=O)NC2C=C1 (stereo not given in full)
Class Name: hi

Molecule: NCCCn1c2c(c3cc(-c4ccn[nH]4)ccc3c1=O)C(=O)c1ccccc1-2
Class Name: med

Molecule: CCCn1c(N)c(C(N)=O)sc1=S
Class Name: hi

Molecule: C=CCn1c(CN2CCN(c3cc4c(cc3F)c(=O)c(C(=O)O)cn4C3CC3)CC2)n[nH]c1=S
Class Name: hi

Molecule: O=c1[nH]c(-c2cccc(F)c2)cc2cc(F)ccc12
Class Name: med

Molecule: O=C1c2ccccc2C(=O)c2c1oc1c2c(=O)[nH]c2ccccc21
Class Name: med

Molecule: COc1cc(/C=C/CO)cc(OC)c1O[C@@H]1O[C@H](CO)[C@@H](O)[C@H](O)[C@H]1O
Class Name: hi

Molecule: CCOCCc1c(O)nc(SC)[nH]c1=O
Class Name: hi

Molecule: COc1ccc(Nc2cc(NC(=O)CNc3cc(OC)c(Cl)c(OC)c3Cl)ncn2)cc1
Class Name: med

Molecule: Cc1c(O)c(=O)ccn1-c1nc2ccccc2s1
Class Name: hi

Molecule: CCCn1c2cc(OCc3cn(-c4ccc(Cl)cc4)nn3)ccc2c2ccnc(C)c21
Class Name: med

Molecule: CCN1CCC[C@H]1c1cc(O)c2c(c1OC)C[C@H]1C[C@H]3[C@H](N)C(=O)C(C(N)=O)=C(O)[C@@]3(O)C(=O)C1=C2O
Class Name: lo

Molecule: COc1cc([C@H](C)c2ccc3ccccc3c2)cc(OC)c1OC
Class Name: lo

Molecule: COc1ccc(C(=O)c2cc(OC)c(OC)c(OC)c2)cc1OC(=O)C(Cl)(Cl)Cl
Class Name: lo

Molecule: C#CCN(CCCOc1ccc(Cl)cc1Cl)CCCSC(=O)CCCCCN1/C(=C\C=C2/CCCC(/C=C/C3=[N+](CCCCCC(=O)[O-])c4ccccc4C3(C)C)=C2Cl)C(C)(C)c2ccccc21
Class Name: lo

----------
- System: M14 melanoma
- Experimental Protocol: NCI-60 one-dose screen, 48 h (100 = growth as untreated, 0 = no growth, -100 = all killed)
- Condition Set: 10 µM unless noted
About 83,000 compounds went through this panel and 20% of them were active in at least one assay; those are over-represented in the sample as a whole.
Classify as follows. Reported growth greater than or equal to 90%: criterion met. Reported growth below: criterion not met.

Compound: CCCCCOC(=O)c1ccccc1O
Tested On: M14 melanoma
Class Name: criterion met
//
Compound: COC(=O)c1cc2c3c(cc(O)c2[nH]1)N(C(=O)C1Cc2cc(OC)c(OC)c(OC)c2N1)CC3CCl (configuration not stated)
Tested On: M14 melanoma
Class Name: criterion not met
//
Compound: Nc1c(C(=O)Nc2ccccn2)sc2nc3c(cc12)CCCCC3
Tested On: M14 melanoma
Class Name: criterion not met
//
Compound: Nc1c(C(=O)Nc2cccc3ccccc23)sc2nc3c(cc12)CCCCCC3
Tested On: M14 melanoma
Class Name: criterion not met
//
Compound: C=C1C(=O)O[C@H]2[C@H]1CC/C(C=Nc1c(N)cc(C(F)(F)F)cc1Br)=C\CC[C@@]1(C)O[C@@H]21
Tested On: M14 melanoma
Class Name: criterion not met
//
Compound: COc1ccccc1N1CCN(CCCOc2ccc(C(=O)/C=C3/C(=O)Nc4ccccc43)cc2)CC1
Tested On: M14 melanoma
Class Name: criterion not met
//
Compound: COc1cccc(C(=O)OCCn2nc3c4c(cccc42)C(=O)c2ccccc2-3)c1O
Tested On: M14 melanoma
Class Name: criterion not met
//
Compound: COc1ccc(-c2nc(C#N)c(NCC(c3ccc(Cl)cc3)N3CCCCC3)o2)cc1 (configuration not stated)
Tested On: M14 melanoma
Class Name: criterion met
//
Compound: COC(=O)CCc1n(Cc2ccc3ccccc3c2)c2ccccc2[n+]1Cc1ccc2ccccc2c1
Tested On: M14 melanoma
Class Name: criterion not met
//
Compound: COc1ccc2[nH]c(-c3ccccc3)c(C=C(C#N)C#N)c2c1
Tested On: M14 melanoma
Class Name: criterion not met
//
Compound: O=C1NN(c2ccccc2)C(c2ccc(Cl)cc2)N2CCC[C@H]12 (some centres not stated)
Tested On: M14 melanoma
Class Name: criterion met
//
Compound: CCOCc1cc(C(C)(C)C)ccc1O
Tested On: M14 melanoma
Class Name: criterion met
//
Compound: COc1ccc2c(c1)Oc1nc(N)c(C#N)c(N)c1C2Sc1ccc(O)cc1 (configuration not stated)
Tested On: M14 melanoma
Class Name: criterion met
//
Compound: CCOC(=O)C1CCN(S(=O)(=O)/N=C2/NC(=O)NC2=C(Cl)Cl)CC1
Tested On: M14 melanoma
Class Name: criterion not met
//
Compound: COc1cc([C@H](C)c2ccc3ccccc3c2)cc(OC)c1OC
Tested On: M14 melanoma
Class Name: criterion not met
//
Compound: O=c1[nH]c(-c2cccc(F)c2)cc2cc(F)ccc12
Tested On: M14 melanoma
Class Name: criterion not met
//
Compound: COC(=O)/C=C1\SC(=Nc2ccc(F)cc2)N(CCc2c[nH]c3ccccc23)C1=O
Tested On: M14 melanoma
Class Name: criterion met
//
Compound: O=C(O)CCNC1CCCCC1
Tested On: M14 melanoma
Class Name: criterion met
//
Compound: C1=CC2=CC=C3C=CC=C4C(c5nc6c7ccccc7c7ccccc7c6[nH]5)=CC(=C1)C2C34 (configuration not stated)
Tested On: M14 melanoma
Class Name: criterion met

----------
Recorded growth by entry
- Test system: A498 renal
- Experimental Protocol: NCI-60 one-dose screen, 48 h (100 = growth as untreated, 0 = no growth, -100 = all killed)
- Condition Set: 10 µM unless noted
About 83,000 compounds went through this panel and 20% of them were active in at least one assay; those are over-represented in the sample as a whole.

Molecule: c1ccc(-c2cn3ccnc3c(-c3ccc4c(c3)ncn4C3CCCCC3)n2)cc1
growth / %: 106
//
Molecule: O=C(/C(=C\c1c(-c2ccccc2)[nH]c2ccccc12)S(=O)(=O)c1ccccc1)c1ccccc1
growth / %: 54.3
//
Molecule: Cn1nc(C(F)(F)F)c(-c2cc(C(F)(F)F)cc(C(F)(F)F)c2)c1-c1ccc(OCc2ccc(Cl)cc2)cc1O
growth / %: -26.9
//
Molecule: O=C(Nc1ccc(S(=O)(=O)NC2CCCCCC2)cc1)C(c1ccccc1)S(=O)(=O)c1ccc(F)cc1 (centres undefined)
growth / %: -33.2
